All values here come from the supplement of paper PMC7877785.

# test: self-splicing fitness, log relative to wild type (ln ratio); higher = more splicing; Tetrahymena group I intron in knt gene, E. coli kanamycin selection, DiMSum; sequences stand for … in CUCUCU…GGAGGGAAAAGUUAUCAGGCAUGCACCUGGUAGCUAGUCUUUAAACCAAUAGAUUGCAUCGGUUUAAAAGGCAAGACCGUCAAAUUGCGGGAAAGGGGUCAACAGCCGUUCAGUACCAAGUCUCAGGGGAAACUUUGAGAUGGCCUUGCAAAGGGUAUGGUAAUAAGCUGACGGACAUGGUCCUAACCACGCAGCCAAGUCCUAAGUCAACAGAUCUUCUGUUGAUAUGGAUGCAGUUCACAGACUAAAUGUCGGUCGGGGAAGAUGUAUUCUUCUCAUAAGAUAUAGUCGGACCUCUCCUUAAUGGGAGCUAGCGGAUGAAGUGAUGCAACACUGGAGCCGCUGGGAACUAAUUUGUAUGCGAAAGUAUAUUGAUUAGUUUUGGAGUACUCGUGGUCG;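 further: selection with 25 µg/mL kanamycin versus none on LB agar overnight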
# measurement setup: 37 °C
observation type: self-splicing fitness (ln)
Hey, just send me the number, nothing else.

Noted for AGAAAGCAAUAUUACGGGCA : its self-splicing fitness (ln) reads -0.0746

Noted for GCACAGCAAUAUUACGAGGG : its self-splicing fitness (ln) reads -1.14

Noted for CAGUAGCAAUAUUACGACCG : its self-splicing fitness (ln) reads -0.0835

Noted for CGUAAGCAAUAUUACGGGAA : its self-splicing fitness (ln) reads -1.9

Noted for AGAGAGCAAUAUUACGUAAA : its self-splicing fitness (ln) reads -3.12

Noted for GCGUAGCAAUAUUACGGGAU : its self-splicing fitness (ln) reads -1.38

Noted for AGUGAGCAAUAUUACGAGCU : its self-splicing fitness (ln) reads -1.07

Noted for UAUGAGCAAUAUUACGUUAU : its self-splicing fitness (ln) reads -2.46

Noted for GGGUAGCAAUAUUACGUCGA : its self-splicing fitness (ln) reads -0.243

Noted for UUGAAGCAAUAUUACGACGU : its self-splicing fitness (ln) reads 0.439

Noted for GAGAAGCAAUAUUACGUGGU : its self-splicing fitness (ln) reads -2.32
